system: RBL-2H3; assay: Inhibitory activity against release of beta-hexosaminidase from RBL-2H3 cells; format: functional, cell-based; settings: Rattus norvegicus
READOUT_KIND: IC50 (µM)
Numbers only; they are read as µM.

Use the examples below as a reference point.
>>> df
                                 molecule  measured
0       CC[C@H](OC(C)=O)c1ccc(OC(C)=O)cc1        60
1  C=C[C@H](OC(C)=O)c1ccc(OC(C)=O)c(OC)c1        19

**Query** Check the records and state IC50 for C=C[C@H](OC(C)=O)c1ccc(OC(C)=O)cc1 [1'-ACETOXYCHAVICOL ACETATE]
**Result** 15

---

system: RBL-2H3; experiment: Percentage inhibition against release of beta-hexosaminidase from RBL-2H3 cells at 100 uM from control; type: functional; conditions: Rattus norvegicus
READOUT_KIND: inhibition at 100 µM (%)
Numbers only; they are read as %.

Use the examples below as a reference point.
In [3]: df
Out[3]:
                                   molecule  system_under_test  measured
0                  CC(=O)OC/C=C/c1ccc(O)cc1            RBL-2H3         6
1  O=C(O)/C=C/c1ccc(O)c(O)c1 [CAFFEIC ACID]            RBL-2H3         5
2  C=CCc1ccc(OC(C)=O)c(OC)c1 [EUGENYL ACETATE]            RBL-2H3         9
3                C=CCc1ccc(O)cc1 [CHAVICOL]            RBL-2H3         3
4            CC(=O)OC/C=C/c1ccc(OC(C)=O)cc1            RBL-2H3        21
5                       C=C[C@H](O)c1ccccc1            RBL-2H3         3

**Query** Check the records and state inhibition at 100 µM for O=C(O)/C=C/c1ccc(O)cc1 [COUMARIC ACID]
**Result** 6

**Query** Check the records and state inhibition at 100 µM for COc1cc(/C=C/C(=O)O)cc(OC)c1O [SINAPINATE]
**Result** 10

**Query** Check the records and state inhibition at 100 µM for C=CCc1ccc(O)c(O)c1 [HYDROXYCHAVICOL]
**Result** 17

**Query** Check the records and state inhibition at 100 µM for C=CCc1ccc(OC(C)=O)cc1
**Result** 11

**Query** Check the records and state inhibition at 100 µM for COc1ccc(/C=C/C(=O)O)cc1 [4-METHOXYCINNAMIC ACID]
**Result** 11

**Query** Check the records and state inhibition at 100 µM for O=C(O)/C=C/c1ccccc1 [CINNAMIC ACID]
**Result** 7

---

test system: RBL-2H3; assay: Inhibitory activity against release of beta-hexosaminidase from RBL-2H3 cells; format: functional, cell-based; details: Rattus norvegicus
Below: a set of entries, each annotated with reported IC50.

Use the examples below as a reference point.
>>> df
                               molecule  readout_kind  measured
0  C=CCc1ccc(O)c(O)c1 [HYDROXYCHAVICOL]          IC50  > 100 µM
1        CC(=O)OC/C=C/c1ccc(OC(C)=O)cc1          IC50  > 100 µM

API: the following record is the query input.
**Query** Check the records and state IC50 for O=C/C=C/c1ccc(O)cc1 [p-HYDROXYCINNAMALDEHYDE]
**Result** > 100 µM

---

tested on: RBL-2H3; assay: Percentage inhibition against release of beta-hexosaminidase from RBL-2H3 cells at 100 uM from control; format: functional; conditions: Rattus norvegicus
Record met whenever inhibition at 100 µM is at 9% or higher; record not met when lower.

In [3]: df
Out[3]:
                                   compound  label_value
0                      C=CCc1ccc(OC)c(OC)c1      not met
1                      O=C(O)/C=C/c1ccccc1O          met
2                       C=CCc1ccc(O)c(OC)c1      not met
3                        OC/C=C/c1ccc(O)cc1      not met
4              C=C[C@H](O)c1ccc(OC(C)=O)cc1      not met
5  C=CCc1ccc(O[C@H]2O[C@@H](CO)[C@H](O)[C@H](O)[C@@H]2O)cc1      not met

**Query** API: above_or_equal(metric=inhibition at 100 µM, cutoff=9%) for item O=C(O)/C=C/c1cccc(O)c1
**Result** not met

**Query** API: above_or_equal(metric=inhibition at 100 µM, cutoff=9%) for item O=C/C=C/c1ccc(O)cc1 [p-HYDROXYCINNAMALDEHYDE]
**Result** met

Reference source: ChEMBL document CHEMBL1136230
